Tested on: HT29
Type: cell-based
study.conditions: Homo sapiens, HT-29, one dose 10^-5 M, 48 h
readout.type: % growth at 10 µM (%)

{"line.notation": "CN(C)c1ccc(-c2nc(S)nc(N)c2C(=N)NN=Cc2ccc(Cl)cc2Cl)cc1", "readout.type": "% growth at 10 µM", "experimental.result": 107}
{"line.notation": "COc1ccc(C=NNC(=N)c2c(N)nc(S)nc2-c2ccc(Cl)cc2Cl)cc1", "readout.type": "% growth at 10 µM", "experimental.result": 106}
{"line.notation": "N=C(NN=Cc1ccc(Cl)cc1Cl)c1c(N)nc(S)nc1-c1ccc(Cl)cc1", "readout.type": "% growth at 10 µM", "experimental.result": 87}
{"line.notation": "N=C(NN=Cc1ccc(Br)cc1)c1c(N)nc(S)nc1-c1ccc(Cl)cc1", "readout.type": "% growth at 10 µM", "experimental.result": 102}
{"line.notation": "CN(C)c1ccc(-c2nc(S)nc(N)c2C(=N)NN=Cc2ccccc2)cc1", "readout.type": "% growth at 10 µM", "experimental.result": 101}
{"line.notation": "Nc1nc(S)nc(-c2ccc(Cl)cc2)c1-c1ncn[nH]1", "readout.type": "% growth at 10 µM", "experimental.result": 95.4}
{"line.notation": "CN(C)c1ccc(-c2cc([N+](=O)[O-])ccc2C=NNC(=N)c2cnc(S)nc2N)cc1", "readout.type": "% growth at 10 µM", "experimental.result": 109}
{"line.notation": "N=C(NN=Cc1ccc([N+](=O)[O-])cc1)c1c(N)nc(S)nc1-c1ccc(Cl)cc1Cl", "readout.type": "% growth at 10 µM", "experimental.result": 116}
